Hello, the source for this data is patent US6579881B2, in case you need it.

assay target: α1 adrenalin receptor
assay text: Binding test on [3H] prazosin (α1 adrenalin receptor)
Parameters: species or system rat
condition info: [3H] prazosin about 0.2 nM, receptor fraction of rat cerebral cortex
pKi: −log10 of the molar value.
observation type: pKi

INSERT INTO results (compound, assay_target, result) VALUES
  ('O=C(CO)NCc1ccc2ccn(C3CCN(CCc4ccc(F)cc4)CC3)c2c1 [Example 364]', 'α1 adrenalin receptor', 6.54);

[1] O=C1CCCN1Cc1ccc2ccn(C3CCN(CCc4ccc(F)cc4)CC3)c2c1 [Example 358]
[2] CC(=O)NCc1ccc2c(Cl)cn(C3CCN(CCc4ccc(F)cc4)CC3)c2c1 [Example 328]
[3] CN(C)C(=O)NCc1ccc2ccn(C3CCN(CCc4ccc(F)cc4)CC3)c2c1 [Example 385]
Task: Kindly order the items shown according to pKi, from the highest value down. Give the labels in the order specified.
Output: 3, 1, 2
(3: 7.67, 1: 7.38, 2: 6.85)

[P] CS(=O)(=O)Oc1ccc2ccn(C3CCN(CCc4ccc(F)cc4)CC3)c2c1 [Example 336]
[Q] O=C(CCN1CCCCC1)NCc1ccc2ccn(C3CCN(CCc4ccc(F)cc4)CC3)c2c1 [Example 379]
[R] CCC(=O)NCc1ccc2ccn(C3CCN(CCc4ccccc4F)CC3)c2c1 [Example 380]
Task: Kindly order the items shown according to pKi, from the highest value down. Provide the ranking by listing each label in its place in the requested order.
Output: Q, P, R
(Q: 7.52, P: 7.27, R: 6.94)

###

assay target: α1 adrenalin receptor
assay text: Binding test on [3H] prazosin (α1 adrenalin receptor)
Parameters: species or system rat
condition info: [3H] prazosin about 0.2 nM, receptor fraction of rat cerebral cortex
pKi: −log10 of the molar value. Where a name gives a salt, the structure may show the parent alone.
observation type: pKi

Answered examples (10):
INSERT INTO results (compound, result) VALUES
  ('CN(C)CCC(=O)NCc1ccc2ccn(C3CCN(CCc4ccc(F)cc4)CC3)c2c1 [Example 378]', 7.36),
  ('CCNC(=O)CCc1ccc2ccn(C3CCN(CCc4ccc(F)cc4)CC3)c2c1 [Example 311, Oxalate]', 7.07),
  ('CC(=O)NCc1ccc2ccn(C3CCN(CCc4ccc(C(C)O)cc4)CC3)c2c1 (centres unmarked) [Example 388]', 6.44),
  ('CS(=O)(=O)c1ccc2ccn(C3CCN(CCc4ccc(F)cc4)CC3)c2c1 [Example 331]', 7.11),
  ('COc1cccc(CCN2CCC(N3CCc4ccccc43)CC2)c1 [Example 19]', 7.26),
  ('OCCOc1ccc2ccn(C3CCN(CCc4ccc(F)cc4)CC3)c2c1 [Example 330]', 6.47),
  ('CC(=O)NCc1ccc(CCN2CCC(N3CCc4ccccc43)CC2)cc1 [Example 36]', 7.41),
  ('O=C(NCc1ccc2ccn(C3CCN(CCc4ccc(F)cc4)CC3)c2c1)n1ccnc1 [Example 368]', 7.42),
  ('CCCNC(=O)Cc1ccc2ccn(C3CCN(CCc4ccc(F)cc4)CC3)c2c1 [Example 297]', 6.65),
  ('COc1ncccc1C(O)c1ccc2c(c1)N(C1CCN(CCc3ccc(F)cc3)CC1)CC2 (centres unmarked) [Example 184]', 6.72);

[A] Nc1nc2cc3c(cc2s1)CCN3C1CCN(CCc2ccc(F)cc2)CC1 [Example 235]
[B] O=C1CNC(=O)N1Cc1ccc2ccn(C3CCN(CCc4ccc(F)cc4)CC3)c2c1 [Example 353]
[C] O=C(CN1CCCCC1)NCc1ccc2ccn(C3CCN(CCc4ccc(F)cc4)CC3)c2c1 [Example 376]
Task: Put the items in order so that reported pKi rises from first to last. Returns: the labels listed in the requested order.
Output: B, A, C

[a] CN(C)CCNC(=O)Cc1ccc2ccn(C3CCN(CCc4ccc(F)cc4)CC3)c2c1 [Example 307]
[b] OCc1ccc2ccn(C3CCN(CCc4ccccc4F)CC3)c2c1 [Example 391]
[c] CC(=O)NCCc1ccc2c(c1)N(C1CCN(CCc3ccc(F)cc3)CC1)CC2 [Example 166]
Task: Form: Sort by [pKi] Order [ ascending ] // format: requested-order list of labels
Output: c, b, a
(c: 6.71, b: 6.93, a: 7.29)

[A] Fc1ccc(CCN2CCC(N3CCc4ccccc43)CC2)cc1F [Example 11]
[B] CS(=O)(=O)NCc1ccc(CCN2CCC(N3CCc4ccccc43)CC2)cc1 [Example 38]
Task: Hey, which is lower on measured pKi, A or B ? Identify your selection by its label.
Output: B
(B: 6.61, A: 6.83)
